# credit: ChEMBL document CHEMBL3124875

Test system: MCF7
Assay: Cytotoxicity against human MCF7 cells at 30 uM after 72 hrs by MTT assay
Assay type: functional
Settings: MCF7, 72 h
Listing of recorded inhibition at 30 µM by entry.
Number only, in %; omit the unit.

| COMPOUND_STRUCTURE_STRING | RESULT_TYPE | ENDPOINT_RESULT |
| --- | --- | --- |
| CC(=O)O[C@H]1CC[C@@]2(C)C(=CC[C@H]3[C@@H]4CC[C@H](c5nnc(-c6ccco6)o5)[C@@]4(C)CC[C@@H]32)C1 | inhibition at 30 µM | 45.3 |

Attention now shifts to the item below.
Problem: State its inhibition at 30 µM: C[C@]12CC[C@H]3[C@@H](CC=C4C[C@@H](O)CC[C@@]43C)[C@@H]1CC[C@@H]2/C=N/NC(=O)c1ccccc1
Result: 48

----------
Tested on: HeLa
Assay: Cytotoxicity against human HeLa cells at 10 uM after 72 hrs by MTT assay
Assay type: functional
RESULT_TYPE: inhibition at 10 µM (%)
Number only, in %; omit the unit.

Recorded inhibition at 10 µM, per entry:
| COMPOUND_STRUCTURE_STRING | TESTED_SYSTEM | READING_UNIT | inhibition at 10 µM |
| --- | --- | --- | --- |
| CC(=O)O[C@H]1CC[C@@]2(C)C(=CC[C@H]3[C@@H]4CC[C@H](c5nnc(-c6cccnc6)o5)[C@@]4(C)CC[C@@H]32)C1 | HeLa | % | 22.5 |
| C[C@]12CC[C@H]3[C@@H](CC=C4C[C@@H](O)CC[C@@]43C)[C@@H]1CC[C@@H]2c1nnc(-c2ccccc2)o1 | HeLa | % | 77.4 |
| C[C@]12CC[C@H]3[C@@H](CC=C4C[C@@H](O)CC[C@@]43C)[C@@H]1CC[C@@H]2c1nnc(-c2cccnc2)o1 | HeLa | % | 71.7 |
| C[C@]12CC[C@H]3[C@@H](CC=C4C[C@@H](O)CC[C@@]43C)[C@@H]1CC[C@@H]2c1nnc(-c2ccco2)o1 | HeLa | % | 74.9 |
| C[C@]12CC[C@H]3[C@@H](CC=C4C[C@@H](O)CC[C@@]43C)[C@@H]1CC[C@@H]2/C=N/NC(=O)c1cccnc1 | HeLa | % | 80.5 |

Attention now shifts to the item below.
Problem: State its inhibition at 10 µM: CC(=O)O[C@H]1CC[C@@]2(C)C(=CC[C@H]3[C@@H]4CC[C@H](/C=N/NC(=O)c5ccccc5)[C@@]4(C)CC[C@@H]32)C1
Result: 71.2

----------
Test system: MCF7
Assay: Cytotoxicity against human MCF7 cells at 30 uM after 72 hrs by MTT assay
Type: functional
Details: MCF7, 72 h
RESULT_TYPE: inhibition at 30 µM (%)
Number only, in %; omit the unit.

| COMPOUND_STRUCTURE_STRING | inhibition at 30 µM / % |
| --- | --- |
| C[C@]12CC[C@H]3[C@@H](CC=C4C[C@@H](O)CC[C@@]43C)[C@@H]1CC[C@@H]2c1nnc(-c2cccnc2)o1 | 45.5 |
| CC(=O)O[C@H]1CC[C@@]2(C)C(=CC[C@H]3[C@@H]4CC[C@H](/C=N/NC(=O)c5cccnc5)[C@@]4(C)CC[C@@H]32)C1 | 28.7 |

Problem: State its inhibition at 30 µM: C[C@]12CC[C@H]3[C@@H](CC=C4C[C@@H](O)CC[C@@]43C)[C@@H]1CC[C@@H]2c1nnc(-c2ccccc2)o1
Result: 35.3
